All values here come from the Kinase Knowledgebase extract (Sharma et al. 2016).

# IC50 per record follows
target: UniProt:P42336; assay: Assessment of PIK3CA Kinase Activity
Sequence (P42336 whole entry, looked up): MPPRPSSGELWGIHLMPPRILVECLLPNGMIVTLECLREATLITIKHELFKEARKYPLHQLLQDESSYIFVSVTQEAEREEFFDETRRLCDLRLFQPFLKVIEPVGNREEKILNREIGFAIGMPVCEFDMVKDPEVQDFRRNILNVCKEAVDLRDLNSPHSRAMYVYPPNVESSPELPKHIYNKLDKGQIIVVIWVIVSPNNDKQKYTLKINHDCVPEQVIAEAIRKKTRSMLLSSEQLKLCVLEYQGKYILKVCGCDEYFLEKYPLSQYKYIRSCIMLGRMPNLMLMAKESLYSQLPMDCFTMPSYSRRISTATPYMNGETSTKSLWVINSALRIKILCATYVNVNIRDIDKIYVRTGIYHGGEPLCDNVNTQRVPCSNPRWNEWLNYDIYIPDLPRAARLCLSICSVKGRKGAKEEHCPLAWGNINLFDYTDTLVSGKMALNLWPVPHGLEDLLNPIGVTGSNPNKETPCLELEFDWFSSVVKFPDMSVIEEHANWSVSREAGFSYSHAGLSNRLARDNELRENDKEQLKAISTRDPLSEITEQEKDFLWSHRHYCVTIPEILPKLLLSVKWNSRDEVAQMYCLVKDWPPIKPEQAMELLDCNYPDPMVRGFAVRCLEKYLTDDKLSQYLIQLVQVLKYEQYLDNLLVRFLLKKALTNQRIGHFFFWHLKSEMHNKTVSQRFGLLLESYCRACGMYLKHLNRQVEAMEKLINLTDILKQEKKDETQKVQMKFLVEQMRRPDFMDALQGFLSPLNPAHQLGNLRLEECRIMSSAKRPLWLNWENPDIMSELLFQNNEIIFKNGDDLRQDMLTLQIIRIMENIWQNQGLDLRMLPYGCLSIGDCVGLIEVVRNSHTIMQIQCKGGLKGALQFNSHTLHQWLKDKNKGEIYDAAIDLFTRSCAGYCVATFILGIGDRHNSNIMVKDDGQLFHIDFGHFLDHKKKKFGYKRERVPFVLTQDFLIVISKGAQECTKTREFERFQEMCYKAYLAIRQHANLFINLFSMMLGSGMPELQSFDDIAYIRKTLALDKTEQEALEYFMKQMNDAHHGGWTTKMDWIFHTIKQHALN

Some entries whose results are on file:
C[C@H](Nc1nc(N)ncc1C#N)c1cc2cccc(O)c2c(=O)n1-c1ccccc1 > 10 µM
C[C@H](Nc1nc(N)ncc1C#N)c1cc2cccc(Oc3ccccc3)c2c(=O)n1-c1ccccc1 > 10 µM
C[C@H](Nc1nc(N)ncc1-c1cccc(S(=O)(=O)N2CCCC2)c1)c1cc2cccc(Cl)c2c(=O)n1-c1ccccc1 > 10 µM
C[C@H](Nc1nc(N)ncc1-c1csc(S(C)(=O)=O)n1)c1cc2cccc(Cl)c2c(=O)n1-c1ccccc1 < 0.1 µM
COc1cc(-c2cccc3cc([C@H](C)Nc4nc(N)ncc4C(=O)N4CCOCC4)n(-c4ccccc4)c(=O)c23)ccn1 > 10 µM
COc1cc(-c2cccc3cc(CNc4nc(N)ncc4C#N)n(-c4ccccc4)c(=O)c23)ccn1 > 10 µM
Cc1ccc(-c2cccc3cc([C@H](C)Nc4nc(N)ncc4C#N)n(-c4ccccc4)c(=O)c23)cc1 0.1 to 1 µM
Cc1ccc(NS(C)(=O)=O)cc1-c1cnc(N)nc1N[C@@H](C)c1cc2cccc(Cl)c2c(=O)n1-c1ccccc1 > 10 µM

Attention now turns to another entry.
Req: Kindly indicate its recorded IC50. Item: `COc1cccc(-n2c([C@H](C)Nc3nc(N)ncc3C#N)cc3cccc(Cl)c3c2=O)c1`
Resp: > 10 µM
